experiment: yeast display, Sf9 membrane polyspecificity reagent, FACS + sequencing; frameworks hold sequencing errors
Test readout: polyreactivity (PSR sort gate)

QVQLQESGGGLVQAGGSLRPSCAPSGSISDGDPMAWYRQAPGEERELVATTVLGATTNYADSVKGRFTISRGNAENTVYLERYWLKPVETAVYYCAAPLRYDKGFSYWGQGTQVTVSS; low polyreactivity
QVQLVESGGGLVQAGGSLRLSCAASGFIFYRYAMGWSRQAPGKERELVAAISWGGGSTTYYADSVKGRFTISRDNAKNTVYLQMNSLKPEDTAVYYCAAYIGKGYGSEYYYWGQGTQVTVSS; low polyreactivity

###

experiment: yeast display, Sf9 membrane polyspecificity reagent, FACS + sequencing; frameworks hold sequencing errors
Test readout: polyreactivity (PSR sort gate)

Below, each entry is followed by its recorded polyreactivity (PSR sort gate) result.
QVQLVESGGGLVQAGGSLRLSCAASGRTFVFYAMGWYRQAPGKERELVAAITSSGRTKYADSVKGRFTISRDNAKNTVYLQMNSLKPEDTAVYYCAVLRWPGLDYYWGQGTQVTVSS; high polyreactivity
QVQLVESGGGLVQAGGSLRLSCAASGRIFSRYAMGWYRQAPGKERELVAVISRSGADTYYADSVKGRFTISRDNAKNTVYLQMNSLKPEDTAVFYCNAYSARRPHPMCYDSWGQGTQVTVSS; high polyreactivity
QVQLVESGGGLVQAGGSLRLSCAASGFIFFLNAMGWYRQAPGKERELVAAISSSGGRTYYADSVKGRFTISRDNAKNTVYLQMNSLKPEDTAVYYCNAVTLYRSRTDGYWGQGTQVTVSS; high polyreactivity
QVQLVESGGGLVQAGGSLRLSCAASGLTFWDNAMGWYRQARGKERELVAAIRGGGSTYYADSVKGRFTISRDNAKNTVYLQMNSIIPEDTAVYYCNKQYWYWSNTLTIRDYWGQGTQVTVSS; low polyreactivity
QVQLVESGGGLVQAGGSLRLSCAASGRTFNYYGMGWYRQAPGKERELVAAISRGGTTNYADSVKGRFTISRDNAKNTVYLQMNSLKPEDTAVYYCAKGRSHWHSYQYVRPNYDYWGQGTQVTVSS; low polyreactivity
QVQLVESGGGLVQAGGSLRLSCAASGFIFTEYAMGWYRQAPGKERELVAAISRSDDGTHYADSVKGRFTISRDYAKNTVYLPMNSLKPEDTAVYDCAAYRDYQYDYWGQGTQVTVSS; low polyreactivity
QVQLVESGGGLVQAGGSLRLSCAASGSIFTFNAMGWYRQAPGKERELVATISRRTGSTYYADSVKGRFTISRDNAKNTVYLQMNSLKPEDTAVYYCAARRRVYWYNHYNYWGQGTQVTVSS; high polyreactivity
QVQLVESGGGLVQAGGSLRLSCAASGSTFDENAMAWYRQAPGKEWELVAVISDSGGSTYYADSVKGRFTISRDNAKNTVYLQMNSLKPEDTAVYYCAADQSSLDYGNDYWGQGTQVTVSS; low polyreactivity

Short answer for QVQLVESGGGLVQAGGSLRLSCAASGSTFSIYAMGWYRQAPGKERELVAAISFSDDSTYYADSVKGRFTISRDNAKNTVYLQMNSLKPEDTAVYYCAAEGYWGQPFDYDGALEYWGQGTQVTVSS : polyreactivity (PSR sort gate) was high polyreactivity

Value of measured polyreactivity (PSR sort gate) for the entry QVQLVESGGGLVQAGGSLRLSCAASGSIFLLNAMGWYRQAPGKERELVARIRINGGSTYYADSVKGRFTISRDNAKNTVYLKMNSLKPEDTAVYYCAADDTGPYSNWYDYWGQGTQVTVSS : low polyreactivity

So for QVQLVESGGGLVQAGGSLRLSCAGSGYILFAYAMGWSRQAPGKERELVATITTSGGITYYADSVKGRFTISRDNAKNTVYLQMNSLKPEDTEVYYWAAAEGGGLVTYDYWGQGSQVTVSS , the logged polyreactivity (PSR sort gate) turned out to be low polyreactivity

Summary for this sequence, QVQLVESGGGLVQAGGSLRLSCAASGSNLVHYAIGWYRQAPGKERELVAASSRGGSTNYADSVKGRFTISRDNAKNTVYLQMNSLKPEDTAVYYCAARRPWGEYYWGQGTQVTVSS : polyreactivity (PSR sort gate) is low polyreactivity

// polyreactivity (PSR sort gate) value for QVQLVESGGGLVQAGGSLRLSCAASGRTFVTNAMGWYRQAPGKERELVAAISSSGGSTYYADSVKGRFTISRDKAKNTVYLQMNSLKPEDTAVYYCAVGGQTKGQYDYWGQGTQVTVSS : low polyreactivity

Field polyreactivity (PSR sort gate) (entry QVQLVESGGGLVQAGGSLRLSCAASGSTFGIYAMGWYRQAPGKERELVAAITWRGSSTYYADSVKGRFTISRDNAKNTVYLQMNSLKPEDTAVYYCAAEDTFYEYYSWGQGTQVTVSS ) reads high polyreactivity

Lab note: QVQHVDSGGGLVQAGGSLRLSCAASGSTFGYNAMGWYRQAPGKERELVAAITFSGDSTSYADSVKGRFTISRDNAKNSVYLQMNSLKPEDTAVYYCAVDTWNGDGSGYSLEFEYWGQGTQVTVSS gave polyreactivity (PSR sort gate) of low polyreactivity

Summary for this sequence, QVQLVESGGGLVQAGGSLRLSCAASGTTFTRYAMGWYRQAPGKERELVAAISRTGGSRTYYADSVKGRFTISRDNAKNTVYLHMNSLKPEDTAVYYCAKGYWRYLGFLYFFPARDYWGQGTQVTVSS : polyreactivity (PSR sort gate) is high polyreactivity

Sure, the documented polyreactivity (PSR sort gate) for QVQLVESGGGLVQAGGSLRLSCAASGRIFNRYAMGWYRQAPGKERELVAAITSGGDTNYADSVKGRFTISRDNAKNTVYLQMNSLKPEDTAVYYCNARSRGRASGYDYWGQGTQVTVSS is high polyreactivity
